meta.source: patent US20030068675

Biological target: T1, ZFP SBS#1248 (synthetic)
T1 chain: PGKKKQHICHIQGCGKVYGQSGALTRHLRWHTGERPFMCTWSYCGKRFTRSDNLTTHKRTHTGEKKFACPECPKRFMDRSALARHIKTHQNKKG
Assay: EMSA
Conditions: tags: MBP fusion
MEASUREMENT_KIND: pKd
Units for pKd: none; it is -log10 of a concentration expressed in mol/L.

### Prompt Which pKd value is on record for GTCTAGGTA (dsDNA) DNA 1: GTCTAGGTA DNA 2: TACCTAGAC ?
### Response 8.29
